Numbers sourced from patent US9079858B2.

assay: Stability assay in rabbit vitreous humor; format: in vitro ADME; settings: rabbit vitreous humor; 1 μM in rabbit vitreous; read-out: t½ Rabbit VH

# COMPOUND, half-life at 1 μM
data = [
    ("COC(=O)c1ccc(C(=O)Nc2cccc(-c3cc(C(=O)Nc4ccncc4F)ccc3CN)c2)cc1 [Compound 7]", "> 1 h"),
    ("COC(=O)c1ccc(C(=O)Nc2cccc(-c3cc(C(=O)Nc4ccncc4F)ccc3CN)c2)nc1 [Compound 8]", "> 1 h"),
]

---

Assay: Stability assay in rabbit aqueous humor
Assay type: in vitro ADME
Settings: 1 μM in rabbit aqueous humor; read-out: t½ Rabbit AH
Method: Compounds are incubated at a concentration of 1 μM in rabbit aqueous humor (AH) or rabbit vitreous (VH). Samples are taken at fixed time points and the remnant of compound is determined by LC-MS/MS after protein precipitation.

# QUERY_SMILES, half-life at 1 μM
rows = [
    ("COC(=O)c1ccc(C(=O)Nc2cccc(-c3cc(C(=O)Nc4ccncc4F)ccc3CN)c2)nc1", "> 1 h"),
    ("COC(=O)c1ccc(C(=O)Nc2cccc(-c3cc(C(=O)Nc4ccncc4F)ccc3CN)c2)cc1", "> 1 h"),
]
